background-corrected fluorescence overview
Test: background-corrected fluorescence of 3'-dye-labeled ssDNA relative to brightest sequence (3'-GCGCG) (fraction); higher = brighter dye fluorescence (less quenching)
Conditions: dye: Cy3 (3' terminal)
Number only, no unit.

Reference set (5 entries):
1) TTTTTTGATCATCAGCATGATTTTTTTTTTTTTTTCGGTC [CTGGC] :: 0.506
2) TTTTTTGCTGATGCTCATGATTTTTTTTTTTTTTTACAGC [CGACA] :: 0.508
3) TTTTTTGATGCTCATGATGCTTTTTTTTTTTTTTTCAGCA [ACGAC] :: 0.514
4) TTTTTTCATGCTGCGCATCATTTTTTTTTTTTTTTGAATG [GTAAG] :: 0.489
5) TTTTTTGCTGATGAGCAGCATTTTTTTTTTTTTTTACCTT [TTCCA] :: 0.463

stdin: Look up background-corrected fluorescence for this sequence: TTTTTTGCTCATCAGCATGATTTTTTTTTTTTTTTAGGTC [CTGGA]
stdout: 0.459

stdin: Look up background-corrected fluorescence for this sequence: TTTTTGCATGCGCAGCATCATTTTTTTTTTTTTTTTATTG [GTTAT]
stdout: 0.522

stdin: Look up background-corrected fluorescence for this sequence: TTTTTTGAGCATGATCATGCTTTTTTTTTTTTTTTCTCGA [AGCTC]
stdout: 0.599

stdin: Look up background-corrected fluorescence for this sequence: TTTTTTGAGCAGCATGATGCTTTTTTTTTTTTTTTCTTCA [ACTTC]
stdout: 0.455

stdin: Look up background-corrected fluorescence for this sequence: TTTTTGCATGATCAGCATCATTTTTTTTTTTTTTTTCGTG [GTGCT]
stdout: 0.525

Value source: the supplement of paper PMC9428881
